# test.target: T1, Human Siglec-9 mutant M2 (human, UniProt Q9Y336 18-463)
# T1 construct: Expressed on HEK293T cells; also called Mutant 2
# T1 sequence (Q9Y336 other isoform, or with tags, fused parts or gaps mutant): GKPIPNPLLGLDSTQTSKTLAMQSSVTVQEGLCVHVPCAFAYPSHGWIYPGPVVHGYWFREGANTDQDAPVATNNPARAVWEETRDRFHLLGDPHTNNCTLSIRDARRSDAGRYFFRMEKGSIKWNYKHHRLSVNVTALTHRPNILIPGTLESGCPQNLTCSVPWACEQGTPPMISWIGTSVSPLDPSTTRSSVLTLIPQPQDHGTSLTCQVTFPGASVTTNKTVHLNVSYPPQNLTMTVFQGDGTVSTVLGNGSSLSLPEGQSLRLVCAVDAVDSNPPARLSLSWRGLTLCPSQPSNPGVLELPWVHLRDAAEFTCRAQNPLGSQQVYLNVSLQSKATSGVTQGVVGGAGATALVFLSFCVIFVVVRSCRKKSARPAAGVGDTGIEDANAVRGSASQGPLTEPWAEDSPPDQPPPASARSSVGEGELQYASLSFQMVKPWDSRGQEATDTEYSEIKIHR
# run.description: flow cytometry, HEK293T transfectants
measurement.name: binding result

>>> result("Fab1 (Fab of mAb1) (Fab, V domains shown) VH: DVQLQESGPGLVKPSQSLSLTCTVTGYSITGGFAWNWIRQFPGNTLEWMGYIGYGGSTSYNPSLNSRISITRDTSKNHFFLQFNSVTTDDSATYYCARGDYLFAYWGQGTLVTVSA VL: DIVMTQSHKFMSTSVGDRVSITCKASQDVNTAVAWYQQKPGQSPKLLIYSASYRYTGVPDRFTGSGSGTDFTFTISSVQAEDLAVYYCQQHYSTPRTFGGGTKLEIK")
"binds"
>>> result("mAbE (antibody, human IgG1, V domains shown) VH: DVQLVESGGGLVQPGGSRKLSCAASGFTFSTFGMHWVRQAPEKGLEWVAYISSGSNAIYYADTVKGRFTISRDNPKNTLFLQMTSLRSEDTAMYYCASPGYGAWFAYWGQGTLVTVSA VL: ENVLTQSPAIMSASPGEKVTMTCRASSSVSSAYLHWYQQKSGASPKLWIYSTSNLASGVPARFSGSGSGTSYSLTISSVEAEDAATYYCQQYSAYPYTFGGGTKLEIK")
"binds"
>>> result("mAb1 (antibody, human IgG1, V domains shown) VH: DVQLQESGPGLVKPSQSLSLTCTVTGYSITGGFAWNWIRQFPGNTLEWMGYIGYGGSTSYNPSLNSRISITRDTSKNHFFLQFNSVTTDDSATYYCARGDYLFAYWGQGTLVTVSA VL: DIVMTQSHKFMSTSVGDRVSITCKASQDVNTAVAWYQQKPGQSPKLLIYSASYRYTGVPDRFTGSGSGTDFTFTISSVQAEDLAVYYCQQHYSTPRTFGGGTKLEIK")
"binds"
